Origin of measurements: patent US12144820B2

- Assay details: ASA and L-leucine absolute solubility in EtOH/water blends
- Format: physicochemical
- Stated conditions: Neutral, EtOH/Water 0/100 (v/v); read-out: L-Leucine solubility

{"Smiles string": "CC(C)C[C@H](N)C(=O)O", "Uom": "µg/mL", "solubility": 10000}

====

- Assay details: ASA and L-leucine absolute solubility in EtOH/water blends
- Type: physicochemical
- Stated conditions: aqueous with cosolvent or surfactant or cyclodextrin; Neutral, EtOH/Water 25/75 (v/v); read-out: L-Leucine solubility

{"Compound": "CC(C)C[C@H](N)C(=O)O [L-Leucine, L-leucine]", "solubility (µg/mL)": 400}

====

- Assay details: ASA and L-leucine absolute solubility in EtOH/water blends
- Assay type: physicochemical
- Stated conditions: aqueous with cosolvent or surfactant or cyclodextrin; Neutral, EtOH/Water 50/50 (v/v); read-out: L-Leucine solubility

{"Smiles string": "CC(C)C[C@H](N)C(=O)O", "Uom": "µg/mL", "solubility": 300}

====

- Assay details: ASA and L-leucine absolute solubility in EtOH/water blends
- Assay type: physicochemical
- Stated conditions: aqueous with cosolvent or surfactant or cyclodextrin; pH 3, EtOH/Water 10/90 (v/v); read-out: L-Leucine solubility
- Method: To define the absolute solubility of ASA and L-leucine in a variety of solvent blends, solvent blends were evaluated for solubility of ASA and L-leucine by visual confirmation. As used in this example, unless specified otherwise, leucine is L-leucine.

{"Smiles string": "CC(C)C[C@H](N)C(=O)O", "solubility": "11 mg/mL"}

====

- Assay details: ASA and L-leucine absolute solubility in EtOH/water blends
- Assay type: physicochemical
- Stated conditions: organic solvent or mixture; Neutral, EtOH/Water 75/25 (v/v); read-out: L-Leucine solubility

{"Smiles string": "CC(C)C[C@H](N)C(=O)O", "Uom": "µg/mL", "solubility": 200}

====

- Assay details: ASA and L-leucine absolute solubility in EtOH/water blends
- Type: physicochemical
- Stated conditions: EtOH/Water 50/50 (v/v), aqueous with cosolvent or surfactant or cyclodextrin; read-out: ASA solubility
Quantity name: solubility (mg/mL)

{"Smiles string": "CC(=O)Oc1ccccc1C(=O)O", "Quantity name": "solubility", "Numeric readout": 72.5}

====

- Assay details: ASA and L-leucine absolute solubility in EtOH/water blends
- Type: physicochemical
- Stated conditions: EtOH/Water 90/10 (v/v), organic solvent or mixture; read-out: ASA solubility
Quantity name: solubility (mg/mL)

{"Molecule": "CC(=O)Oc1ccccc1C(=O)O [acetylsalicylic acid]", "Numeric readout": 220}
